System: Wnt5a (protein binding on small-molecule microarray)
Test: small molecules binding Wnt5a protein – biophysical, small-molecule microarray, 635/667 nm fluorescence, primary screen (AID 1142);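 further: fluorescence read at 667 nm with signal to noise per printed feature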
Conditions: 635 nm fluorescence, higher = more signal
Would you mind telling me the reported composite z-score of each entry?
Please reply with the value in numeric form only.

Enquiry: Look at this compound and give its reported composite z-score. COc1ccc([C@H]2OC[C@@H]3C[C@H](Cc4ccccc4)C(=O)N32)cc1
Return: 0.204

Enquiry: Look at this compound and give its reported composite z-score. CCC1=C2CN(Cc3ccccc3)[C@@H](C(=O)Cc3ccccc3)C2C=CCC1 (some centres undefined)
Return: -0.245

Enquiry: Look at this compound and give its reported composite z-score. CCOC(=O)C1=C[C@@H](C(C)C)N(S(=O)(=O)c2ccc(C)cc2)[C@H]1c1ccc(C(F)(F)F)cc1
Return: 0.418

Enquiry: Look at this compound and give its reported composite z-score. C=CCC(OC(C)=O)[C@@H]1[C@@H](N(Cc2ccc(-c3cccc(C(F)(F)F)c3)o2)C(=O)c2ccc(-c3ccccc3)cc2)c2cc(OCCCO)ccc2N1C(=O)Cc1ccc2ccccc2c1 (some centres undefined)
Return: -0.276
